Molecular target: human dopamine receptor subtype hD3 (Homo sapiens)
Construct: expressed in transfected cells; host or cells: CHO
Sequence (P35462 whole entry): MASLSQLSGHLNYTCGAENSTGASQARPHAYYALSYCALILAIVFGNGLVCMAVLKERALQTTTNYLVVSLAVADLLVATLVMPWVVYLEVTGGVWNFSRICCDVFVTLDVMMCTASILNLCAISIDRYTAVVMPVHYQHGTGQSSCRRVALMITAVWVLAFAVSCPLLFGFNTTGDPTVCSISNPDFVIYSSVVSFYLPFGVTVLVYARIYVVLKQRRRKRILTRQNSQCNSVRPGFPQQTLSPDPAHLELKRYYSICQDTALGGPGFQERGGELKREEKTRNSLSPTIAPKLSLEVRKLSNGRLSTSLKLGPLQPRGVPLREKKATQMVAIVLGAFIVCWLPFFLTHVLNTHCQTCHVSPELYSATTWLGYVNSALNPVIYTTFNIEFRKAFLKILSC
Experiment: Receptor binding assay, [3H]spiperone competition, CHO cell membranes
Settings: vs p5-HT1a
measured-endpoint: selectivity ratio hD3
Answer using only a numeral; do not append any unit.

Consider the reported selectivity ratio hD3 for these compounds:
{"columns": ["compound", "measured-endpoint", "value-observed"],
 "data": [
  ["CCCN(CCc1cccs1)C1CCc2cccc(O)c2C1 (centres unmarked) [Compound 1]", "selectivity ratio hD3", 260],
  ["CCCN(CCc1ccccc1)C1CCc2cccc(O)c2C1 (centres unmarked) [Compound 3]", "selectivity ratio hD3", 310],
  ["CCCN(CCc1ccc(O)cc1)C1CCc2cccc(O)c2C1 (centres unmarked) [Compound 5]", "selectivity ratio hD3", 86]
]}

Now turn to the next compound.
Query: Output selectivity ratio hD3 of CCCN(CCc1cc(C)ccc1C)C1CCc2cccc(O)c2C1 (centres unmarked) [Compound 7]
Result: 76

Values compiled from patent US8586603B2.
